- Tested on: barnyardgrass
- PROTOCOL_DESCRIPTION: Test B flooded paddy test
- Format: in vivo, Echinochloa crus-galli
- CONDITION_DESCRIPTION: 1000 g ai/ha, visual rating, scale 0 to 100 (0 no effect, 100 complete control), 13 to 15 days
MEASURED_QUANTITY: Barnyardgrass plant response rating
Give only the figure.

## Task Sample CCOC(=O)c1cccc(NC(=O)c2cc(C(C)(C)C)nn2CCF)c1 — what was its Barnyardgrass plant response rating?
## Result 60

====

- Tested on: pigweed
- PROTOCOL_DESCRIPTION: Test B pre-/postemergence herbicide test
- Type: in vivo, Amaranthus retroflexus
- CONDITION_DESCRIPTION: 125 g ai/ha; 0 is no effect, 100 is complete control; preemergence
MEASURED_QUANTITY: Plant response rating (0 to 100 scale), Pigweed
Give only the figure.

> print(dat)
                            chemical.string  measured.value
1  C=CCN(CC=C)C(=O)c1ccc(F)c(NC(=O)c2nn(C(C)(C)C)nc2CC)c1               0

## Task Sample CCc1nn(C(C)(C)C)nc1C(=O)Nc1cc(C(=O)N2CCCCC2)ccc1F — what was its Plant response rating (0 to 100 scale), Pigweed?
## Result 0

## Task Next compound: CCOC(=O)c1ccnc(NC(=O)c2nn(C(C)(C)C)nc2C)c1
## Result 0

====

- Test system: barnyardgrass
- PROTOCOL_DESCRIPTION: Test B pre-/postemergence herbicide test
- Type: in vivo, Echinochloa crus-galli
- CONDITION_DESCRIPTION: postemergence, 125 g ai/ha; visual rating, scale 0 (no effect) to 100 (complete control)
- Description: […] At the same time, plants selected from these crop and weed species and also blackgrass (Alopecurus myosuroides Huds.), wheat (Triticum aestivum L.) and wild oat (Avena fatua L.) were treated with postemergence applications of test chemicals formulated in the same manner. […] Treated plants and controls were maintained in a greenhouse for 13 to 15 days, after which time all species were compared to controls and visually evaluated. […]
MEASURED_QUANTITY: Barnyardgrass plant response rating
Give only the figure.

Examples from the recorded data:
> print(dat)
                            chemical.string                    measured.quantity  measured.value
1  CCn1nc(C(C)(C)C)cc1C(=O)Nc1cc(C(=O)OC(C)C)c(OC)cc1F  Barnyardgrass plant response rating               0
2  CCn1nc(C(C)(C)C)cc1C(=O)Nc1nc(C(=O)N(C)C)ccc1F  Barnyardgrass plant response rating               0
3  CC(=NO)c1ccnc(NC(=O)c2cc(C(C)(C)C)nn2C)n1  Barnyardgrass plant response rating               0
4  CCn1nc(C(C)(C)C)cc1C(=O)Nc1nc(C(=O)OC)ccc1OC  Barnyardgrass plant response rating               0

## Task Give recorded Barnyardgrass plant response rating with barnyardgrass for the following compound: CCn1nc(C(C)(C)C)cc1C(=O)Nc1cc(C(=O)OC(C)C)c(F)cc1F
## Result 10

====

- Tested on: barnyardgrass
- PROTOCOL_DESCRIPTION: Test B flooded paddy test
- Type: in vivo, Echinochloa crus-galli
- CONDITION_DESCRIPTION: 1000 g ai/ha, visual rating, scale 0 to 100 (0 no effect, 100 complete control), 13 to 15 days
MEASURED_QUANTITY: Barnyardgrass plant response rating

## Task Sample CCNC(=O)c1cc(C)cc(NC(=O)c2cc(C(C)(C)C)nn2CC)n1 — what was its Barnyardgrass plant response rating?
## Result 70

## Task Next compound: CCN(CC)C(=O)c1cccc(NC(=O)c2cc(C(C)(C)C)nn2CC)n1
## Result 70

## Task Next compound: CCn1nc(C(C)(C)C)cc1C(=O)Nc1cccc(C#N)c1
## Result 70

## Task Next compound: CCC(=NO)c1cccc(NC(=O)c2cc(C(C)(C)C)nn2C)c1
## Result 50
